Measured EC50 values are reported for all entries that follow.
Tested On: GST-RIPK1 (recombinant GST-RIPK1 kinase domain (residues 1-327)) (Homo sapiens)
Construct: recombinant GST-RIPK1 kinase domain (residues 1-327) enzyme produced from baculovirus-transfected Sf21 cells
Sequence (Q13546 1-327): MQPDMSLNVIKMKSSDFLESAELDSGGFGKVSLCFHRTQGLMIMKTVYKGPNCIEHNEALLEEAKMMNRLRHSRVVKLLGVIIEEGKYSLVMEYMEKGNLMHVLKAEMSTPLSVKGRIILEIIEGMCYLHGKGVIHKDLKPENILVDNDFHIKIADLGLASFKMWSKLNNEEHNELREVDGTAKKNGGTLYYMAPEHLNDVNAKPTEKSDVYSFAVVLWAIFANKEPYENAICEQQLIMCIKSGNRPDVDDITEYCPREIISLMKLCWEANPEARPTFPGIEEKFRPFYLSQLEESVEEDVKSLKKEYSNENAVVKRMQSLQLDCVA
Test Summary: RIPK1-ADP-Glo Enzymatic Assay
Test Conditions: ten-point titration, top compound concentration of 100000 nM; 25 nM GST-RIPK1, 300 μM ATP, 3 μM dephosphorylated-MBP; 30 min pre-incubation, 150 min reaction
A number alone suffices; assume nM.

Here's what some known entries look like.
O=C1N2[C@@H](CC[C@H]2c2ccc(F)cc2)O[C@]12C[C@H](Oc1cc(-c3nn[nH]n3)ccn1)C2 [Example 10.7] | 27
O=C1N2[C@@H](CC[C@H]2c2ccc(F)cc2)OC12CC(Oc1nccn3ccnc13)C2 (some centres unmarked) [Example 9.58] | 467

Ask | Look up EC50: O=C1N2[C@@H](CC[C@H]2c2cnccn2)OC12CC(OCc1cccc(Cl)c1)C2 (some centres unmarked) [Example 22.6]
Reply | 15

Ask | Lookup CC1(Oc2cc(C(N)=O)ncn2)CC2(C1)O[C@@H]1CC[C@@H](c3cc(F)cc(F)c3)N1C2=O (some centres unmarked) [Example 5.2]
Reply | 121
